# SUBJECT_OF_TEST: 3CL Protease (SARS-CoV-2) (Severe acute respiratory syndrome coronavirus 2)
# PROTOCOL_DETAILS: biochemical
# CONDITION_NOTES: read-out: inhibition of in vitro protease activity
Please respond with reported inhibition at 50 µM for every item in the list.

CC(=O)OCC(=O)[C@@]12OC3(CCCC3)O[C@@H]1C[C@H]1[C@@H]3CCC4=CC(=O)C=C[C@]4(C)[C@@]3(F)[C@@H](O)C[C@@]12C [Drug B5, Amcinonide] :: ≥ 50%
O=c1[nH]c2ccccc2n1C1CCN(CCCC(c2ccc(F)cc2)c2ccc(F)cc2)CC1 [Drug B11, Pimozide] :: ≥ 50%

Query: So what does the record say about inhibition at 50 µM for "CC1(C)O[C@@H]2C[C@H]3[C@@H]4C[C@H](F)C5=CC(=O)C=C[C@]5(C)[C@@]4(F)[C@@H](O)C[C@]3(C)[C@]2(C(=O)CO)O1" ?
Reply: ≥ 50%
